- STUDY_SYSTEM: five-component PRC2 (EZH2/EED/SUZ12/RBBP4/AEBP2) (Homo sapiens, UniProt Q15910)
- ASSAY_INFO: PRC2 methyltransferase assay (radiometric SPA)
- EXPERIMENTAL_CONDITIONS: radiometric labeled SAM; read-out: biochemical IC50
- Experimental: Recombinant five-component PRC2 (EZH2/EED/SUZ12/RBBP4/AEBP2) was co-expressed in Sf9 and purified as described (Cao and Zhang, 2004). PRC2 activity was measured using a radiometric Scintillation Proximity Assay (SPA) performed in 384-well OptiPlates (Perkin Elmer). […] CPM values were measured using the TopCount NXT plate reader. Percent activity values were calculated by setting the average background (no-enzyme wells) to 0% and the average DMSO wells to 100% activity. […]

| COMPOUND | STUDY_SYSTEM | READOUT_UNIT | IC50 |
| --- | --- | --- | --- |
| CCCc1cc(C)[nH]c(=O)c1CNC(=O)c1cc(-c2ccc(N3CCN(C)CC3)nc2)nc2c1cnn2C(C)C [JQEZ5] | five-component PRC2 (EZH2/EED/SUZ12/RBBP4/AEBP2) (Homo sapiens, UniProt Q15910) | nM | 80 |

----------
- STUDY_SYSTEM: MLL2 (Homo sapiens, UniProt O14686)
pIC50: −log10 of the molar value.

| COMPOUND | pIC50 |
| --- | --- |
| Nc1ncnc2c1ncn2[C@@H]1O[C@H](CSCC[C@H](N)C(=O)O)[C@@H](O)[C@H]1O [SAH, S-adenosyl-homocysteine] | 4.75 |

----------
- STUDY_SYSTEM: SMYD2 (Homo sapiens, UniProt Q9NRG4)
- Sequence (Q9NRG4 whole entry): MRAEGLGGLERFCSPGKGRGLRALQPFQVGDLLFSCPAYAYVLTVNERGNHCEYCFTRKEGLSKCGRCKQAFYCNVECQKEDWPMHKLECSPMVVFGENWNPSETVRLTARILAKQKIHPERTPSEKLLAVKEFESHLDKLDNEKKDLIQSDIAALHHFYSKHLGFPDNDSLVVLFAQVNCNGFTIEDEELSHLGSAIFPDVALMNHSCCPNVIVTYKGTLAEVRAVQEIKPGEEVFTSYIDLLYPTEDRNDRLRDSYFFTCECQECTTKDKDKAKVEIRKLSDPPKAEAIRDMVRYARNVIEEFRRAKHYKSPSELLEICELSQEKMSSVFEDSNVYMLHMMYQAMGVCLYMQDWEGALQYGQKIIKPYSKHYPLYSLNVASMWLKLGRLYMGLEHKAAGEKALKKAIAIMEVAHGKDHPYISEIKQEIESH
pIC50: −log10 of the molar value.

| COMPOUND | STUDY_SYSTEM | pIC50 |
| --- | --- | --- |
| Nc1ncnc2c1ncn2[C@@H]1O[C@H](CSCC[C@H](N)C(=O)O)[C@@H](O)[C@H]1O [SAH, S-adenosyl-homocysteine] | SMYD2 (Homo sapiens, UniProt Q9NRG4) | 6.08 |

----------
- STUDY_SYSTEM: SUV39H2 (Homo sapiens)
- Sequence (Q9H5I1 whole entry): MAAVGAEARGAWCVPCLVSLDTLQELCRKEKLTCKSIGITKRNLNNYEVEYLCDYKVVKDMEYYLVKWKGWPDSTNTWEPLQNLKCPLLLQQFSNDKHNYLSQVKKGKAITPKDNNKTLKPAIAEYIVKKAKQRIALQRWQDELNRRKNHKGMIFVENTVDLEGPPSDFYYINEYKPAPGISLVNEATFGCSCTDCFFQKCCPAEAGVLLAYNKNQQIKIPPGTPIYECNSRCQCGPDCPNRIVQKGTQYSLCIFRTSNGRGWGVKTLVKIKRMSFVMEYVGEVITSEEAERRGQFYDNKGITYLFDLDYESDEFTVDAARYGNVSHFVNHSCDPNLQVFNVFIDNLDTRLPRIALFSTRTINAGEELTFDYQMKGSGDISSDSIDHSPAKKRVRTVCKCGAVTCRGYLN
pIC50: −log10 of the molar value.
ENDPOINT_NAME: pIC50

| SUBSTANCE_SMILES | MEASURED_RESULT |
| --- | --- |
| Nc1ncnc2c1ncn2[C@@H]1O[C@H](CSCC[C@H](N)C(=O)O)[C@@H](O)[C@H]1O | 4.68 |

----------
- STUDY_SYSTEM: PRMT6 (Homo sapiens)
- Sequence (Q96LA8 whole entry): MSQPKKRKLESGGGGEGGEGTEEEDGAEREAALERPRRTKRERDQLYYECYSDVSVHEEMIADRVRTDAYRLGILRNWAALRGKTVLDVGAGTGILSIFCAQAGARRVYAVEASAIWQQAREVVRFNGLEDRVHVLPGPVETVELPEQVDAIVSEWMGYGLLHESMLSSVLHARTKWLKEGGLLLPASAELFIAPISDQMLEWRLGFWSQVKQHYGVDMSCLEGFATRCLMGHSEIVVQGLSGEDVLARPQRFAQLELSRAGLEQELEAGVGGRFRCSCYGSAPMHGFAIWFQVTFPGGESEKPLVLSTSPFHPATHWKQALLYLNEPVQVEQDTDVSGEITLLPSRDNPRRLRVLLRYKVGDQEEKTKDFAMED

| SUBSTANCE_SMILES | STUDY_SYSTEM | IC50 [nM] |
| --- | --- | --- |
| Nc1ncnc2c1ncn2[C@@H]1O[C@H](CSCC[C@H](N)C(=O)O)[C@@H](O)[C@H]1O | PRMT6 (Homo sapiens) | 252 |

----------
- STUDY_SYSTEM: SET7/9 (Homo sapiens)
- Sequence (Q8WTS6 whole entry): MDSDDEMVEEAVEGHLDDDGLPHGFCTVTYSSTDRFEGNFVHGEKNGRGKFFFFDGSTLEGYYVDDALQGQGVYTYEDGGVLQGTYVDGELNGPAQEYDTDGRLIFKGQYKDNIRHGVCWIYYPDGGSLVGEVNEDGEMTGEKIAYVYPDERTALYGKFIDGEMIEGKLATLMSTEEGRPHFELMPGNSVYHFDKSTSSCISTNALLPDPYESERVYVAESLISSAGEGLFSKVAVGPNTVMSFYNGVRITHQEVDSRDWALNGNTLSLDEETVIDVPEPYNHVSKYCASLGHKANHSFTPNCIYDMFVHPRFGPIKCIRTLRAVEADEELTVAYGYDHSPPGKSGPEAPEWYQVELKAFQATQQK
- ASSAY_INFO: HMT panel profiling
ENDPOINT_NAME: IC50 (µM)

| COMPOUND | READOUT_UNIT | MEASURED_RESULT |
| --- | --- | --- |
| Nc1ncnc2c1ncn2[C@@H]1O[C@H](CSCC[C@H](N)C(=O)O)[C@@H](O)[C@H]1O [SAH, S-adenosyl-homocysteine] | µM | 121 |

----------
- STUDY_SYSTEM: SETMAR (Homo sapiens, UniProt Q53H47)
- Sequence (Q53H47 whole entry): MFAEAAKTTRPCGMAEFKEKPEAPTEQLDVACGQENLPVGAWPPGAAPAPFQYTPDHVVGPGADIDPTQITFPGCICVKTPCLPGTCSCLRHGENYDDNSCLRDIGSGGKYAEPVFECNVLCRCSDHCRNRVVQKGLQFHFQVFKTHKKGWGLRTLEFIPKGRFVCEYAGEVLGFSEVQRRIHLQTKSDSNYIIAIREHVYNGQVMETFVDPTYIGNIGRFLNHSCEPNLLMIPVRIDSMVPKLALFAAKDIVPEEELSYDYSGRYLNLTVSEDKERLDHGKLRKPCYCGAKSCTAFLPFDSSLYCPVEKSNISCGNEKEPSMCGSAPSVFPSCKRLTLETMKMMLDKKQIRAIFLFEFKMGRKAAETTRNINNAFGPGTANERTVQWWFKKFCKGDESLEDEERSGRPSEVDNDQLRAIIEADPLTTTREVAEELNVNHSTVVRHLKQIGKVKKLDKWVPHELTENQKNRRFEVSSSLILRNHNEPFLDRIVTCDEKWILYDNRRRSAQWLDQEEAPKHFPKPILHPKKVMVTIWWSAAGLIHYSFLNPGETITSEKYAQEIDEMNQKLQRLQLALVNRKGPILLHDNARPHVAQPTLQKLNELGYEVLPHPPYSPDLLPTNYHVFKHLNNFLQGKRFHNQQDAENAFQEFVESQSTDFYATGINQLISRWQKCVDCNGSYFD
pIC50: −log10 of the molar value.
ENDPOINT_NAME: pIC50

| SUBSTANCE_SMILES | MEASURED_RESULT |
| --- | --- |
| Nc1ncnc2c1ncn2[C@@H]1O[C@H](CSCC[C@H](N)C(=O)O)[C@@H](O)[C@H]1O | 6.25 |

----------
- STUDY_SYSTEM: SET1B (Homo sapiens)
pIC50: −log10 of the molar value.
ENDPOINT_NAME: pIC50

| SUBSTANCE_SMILES | STUDY_SYSTEM | ENDPOINT_NAME | MEASURED_RESULT |
| --- | --- | --- | --- |
| Nc1ncnc2c1ncn2[C@@H]1O[C@H](CSCC[C@H](N)C(=O)O)[C@@H](O)[C@H]1O | SET1B (Homo sapiens) | pIC50 | 5.17 |

----------
- STUDY_SYSTEM: MLL4 (Homo sapiens, UniProt Q9UMN6)
pIC50: −log10 of the molar value.

| MOLECULE | STUDY_SYSTEM | pIC50 |
| --- | --- | --- |
| Nc1ncnc2c1ncn2[C@@H]1O[C@H](CSCC[C@H](N)C(=O)O)[C@@H](O)[C@H]1O [SAH, S-adenosyl-homocysteine] | MLL4 (Homo sapiens, UniProt Q9UMN6) | 4.92 |

----------
- STUDY_SYSTEM: MLL3 (Homo sapiens, UniProt Q8NEZ4)
pIC50: −log10 of the molar value.

| SUBSTANCE_SMILES | pIC50 |
| --- | --- |
| Nc1ncnc2c1ncn2[C@@H]1O[C@H](CSCC[C@H](N)C(=O)O)[C@@H](O)[C@H]1O | 4.37 |
